target.system: human CD33 P244A (human, UniProt P20138 18-364)
Sequence (P20138 18-364 P244A limits assumed): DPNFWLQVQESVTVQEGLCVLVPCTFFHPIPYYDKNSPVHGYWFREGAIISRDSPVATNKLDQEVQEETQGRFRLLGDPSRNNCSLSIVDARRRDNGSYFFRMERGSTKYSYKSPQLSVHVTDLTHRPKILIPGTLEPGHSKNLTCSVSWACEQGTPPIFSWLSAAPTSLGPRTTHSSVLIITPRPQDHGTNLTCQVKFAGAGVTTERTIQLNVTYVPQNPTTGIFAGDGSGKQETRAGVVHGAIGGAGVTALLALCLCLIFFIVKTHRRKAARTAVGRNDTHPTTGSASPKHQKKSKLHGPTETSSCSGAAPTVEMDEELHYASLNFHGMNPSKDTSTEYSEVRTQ
method.notes: alanine scan, flow cytometry, HEK293-T;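 also: antibody binding to each alanine-substituted CD33 mutant expressed transiently in HEK293-T, read as fluorescence minus background, mean of duplicates, relative to wild-type CD33 set as 100%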
measured.quantity: Mean % WT Binding (% WT binding)
Write it as a number; the unit % WT binding goes unstated.

Would you mind telling me what Mean % WT Binding value was observed for Refmab #1 (antibody, V domains shown, The alanine scan used IgG or Fab; also called hP67.6) VH: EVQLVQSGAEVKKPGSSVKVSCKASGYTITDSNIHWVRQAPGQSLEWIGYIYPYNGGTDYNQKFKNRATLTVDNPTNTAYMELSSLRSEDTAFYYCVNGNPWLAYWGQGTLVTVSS VL: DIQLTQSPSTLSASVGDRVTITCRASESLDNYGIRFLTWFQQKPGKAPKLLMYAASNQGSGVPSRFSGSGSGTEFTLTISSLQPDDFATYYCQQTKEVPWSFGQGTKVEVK ?
84.3
